Tested on: MDA-MB-231 breast
Assay explanation: NCI-60 one-dose screen, 48 h (100 = growth as untreated, 0 = no growth, -100 = all killed)
Condition info: 10 µM
The panel holds about 83,000 compounds, 20% with a hit somewhere; the sample as a whole holds those more often.
Readout: growth (%)
Write it as a number; the unit % goes unstated.

Molecule	growth [%]
O=C(/C=C/c1ccccn1)c1ccccc1	90.2

Prompt: Could you share which growth value was measured for Clc1cc(Cl)c(Cl)nn1 ?
Response: 105

Prompt: Which measured growth value corresponds to CCN1/C(=C/C=C/C=C/c2sc3ccccc3[n+]2CC)Sc2ccccc21 ?
Response: 8.54

Prompt: Value lookup for growth; key = CSC1SCC2C(=O)N(C)C(C(C)C)C(=O)OCC(NC(=O)c3cnc4ccccc4n3)C(=O)NC(C)C(=O)N(C)C1C(=O)N(C)C(C(C)C)C(=O)OCC(NC(=O)c1cnc3ccccc3n1)C(=O)NC(C)C(=O)N2C (stereo not given)
Response: -8.05

###

System: NCI-H522 lung
Assay explanation: NCI-60 one-dose screen, 48 h
Condition info: 10 µM unless noted
Compounds without any hit were thinned out: in the full panel of roughly 83,000, 20% have a hit. The source made the active and inactive calls. How the source made its calls: active means growth percent below 10; inactive means the rest.
A correct response names exactly one class from active, inactive

Molecule	System	Group
O=C1NC(=O)c2cc([N+](=O)[O-])ccc21	NCI-H522 lung	inactive
OC(CN1CCCC2CCCCC21)c1cc2ccccc2c2ccccc12 (centres undefined)	NCI-H522 lung	inactive
Nc1ccc2cc3ccc(N)cc3nc2c1	NCI-H522 lung	active
CCCCCCCCCCCC[N+](C)(C)Cc1ccccc1	NCI-H522 lung	active
NC1=C(Cl)C(=O)c2ccccc2C1=O	NCI-H522 lung	inactive
O=[N+]([O-])C1=C(c2ccccc2)SC=C(c2ccccc2)S1	NCI-H522 lung	inactive
CC(=O)OCC(OC(C)=O)C(OC(C)=O)C(OC(C)=O)C(OC(C)=O)C(/C=N/Nc1ccccc1)=N/Nc1ccccc1 (centres undefined)	NCI-H522 lung	inactive
Cc1nc(N=C(N)N)nc2ccc3ccccc3c12	NCI-H522 lung	active

Now examine the next entry.
Prompt: Field: outcome | Entry: CCCCCCCCCCSC(=N)N
Response: inactive

###

System: BT-549 breast
Assay explanation: NCI-60 one-dose screen, 48 h
Condition info: 10 µM
Method: Growth inhibition of the BT-549 human tumor cell line is measured as a screen for anti-cancer activity. Cells are grown in 96 well plates and exposed to the test compound for 48 hours. Compounds are tested at a single concentration, which is 10^-5 M for most compounds. The reported endpoint is percent growth (GI% or GIPRCNT), where numbers from 0 - 100% represent growth inhibition, and numbers from -100% - 0 represent cell death. For example, a value of 40 represents 60% growth inhibition. […]
This is part of a sample that, as a whole, favours compounds with a hit. Of some 83,000 tested, about 20% had one in any assay. Activity calls are given as the source filed them. How the source made its calls: active means growth percent below 10; inactive means the rest.
Reply using exactly one outcome from active, inactive

Here are 5 compounds together with their reported answers.
Compound	Group
O=C1NC(=O)c2cc([N+](=O)[O-])ccc21	inactive
CSC1SCC2C(=O)N(C)C(C(C)C)C(=O)OCC(NC(=O)c3cnc4ccccc4n3)C(=O)NC(C)C(=O)N(C)C1C(=O)N(C)C(C(C)C)C(=O)OCC(NC(=O)c1cnc3ccccc3n1)C(=O)NC(C)C(=O)N2C (configuration not stated)	active
CCN1/C(=C/C=C/C=C/c2sc3ccccc3[n+]2CC)Sc2ccccc21	active
NC1=C(Cl)C(=O)c2ccccc2C1=O	inactive
Cc1nc(N=C(N)N)nc2ccc3ccccc3c12	inactive

Query compound follows.
Prompt: Which outcome was entered for the compound CCCCCCCCCCSC(=N)N in this test?
Response: inactive
